# Selectivity: IC50(human β-hexosaminidase)/IC50(Human OGA) per record follows
Tested on: human β-hexosaminidase [human placenta] (HexA/B)
procedure_text: Determination of IC50 values for inhibition of human β-hexosaminidase
Type: biochemical
cond: ratio

| test_smiles | assay_system | experimental_result |
| --- | --- | --- |
| CCCCCCCCCN1[C@H](CC(=O)NCCC)[C@H](O)[C@H](O)[C@H]1CO | human β-hexosaminidase [human placenta] (HexA/B) | >25000 |

[in] Requested field: Selectivity: IC50(human β-hexosaminidase)/IC50(Human OGA). Item: "CCCCN1[C@H](CC(=O)NC)[C@H](O)[C@H](O)[C@H]1CO"
[out] 3500

[in] Requested field: Selectivity: IC50(human β-hexosaminidase)/IC50(Human OGA). Item: "CC(C)NC(=O)C[C@H]1N[C@H](CO)[C@@H](O)[C@H]1O"
[out] >2

###

# Selectivity: IC50(human β-hexosaminidase)/IC50(Human OGA) per record follows
Tested on: human β-hexosaminidase [human placenta] (HexA/B)
procedure_text: Determination of IC50 values for inhibition of human β-hexosaminidase
Format: biochemical
cond: ratio

| test_smiles | assay_system | experimental_result |
| --- | --- | --- |
| CCNC(=O)C[C@@H]1[C@@H](O)[C@H](O)[C@@H](CO)N1CCCc1ccc(OC)cc1 | human β-hexosaminidase [human placenta] (HexA/B) | >27272 |
| CCCCCCN1[C@H](CO)[C@@H](O)[C@H](O)[C@H]1CC(=O)NCC | human β-hexosaminidase [human placenta] (HexA/B) | >4769 |
| CC(=O)NC[C@H]1N[C@H](CO)[C@@H](O)[C@H]1O | human β-hexosaminidase [human placenta] (HexA/B) | >178.57 |
| CCCCCCN1[C@H](CO)[C@@H](O)[C@H](O)[C@H]1CC(=O)NC | human β-hexosaminidase [human placenta] (HexA/B) | 0.42 |

[in] Requested field: Selectivity: IC50(human β-hexosaminidase)/IC50(Human OGA). Item: "C=CCNC(=O)C[C@@H]1[C@H](O)[C@H](O)[C@@H](CO)N1CCCCCC"
[out] >188.68

[in] Requested field: Selectivity: IC50(human β-hexosaminidase)/IC50(Human OGA). Item: "CNC(=O)C[C@H]1N[C@H](CO)[C@@H](O)[C@H]1O"
[out] >3000

[in] Requested field: Selectivity: IC50(human β-hexosaminidase)/IC50(Human OGA). Item: "CCCCCCN1[C@H](CO)[C@@H](O)[C@H](O)[C@@H]1CC(=O)NCC"
[out] >42.98

[in] Requested field: Selectivity: IC50(human β-hexosaminidase)/IC50(Human OGA). Item: "CCCCCCN1[C@H](CC(=O)NC)[C@H](O)[C@@H](O)[C@@H]1CO"
[out] >49.4

###

# Selectivity: IC50(human β-hexosaminidase)/IC50(Human OGA) per record follows
Test system: human β-hexosaminidase [human placenta] (HexA/B)
procedure_text: Determination of IC50 values for inhibition of human β-hexosaminidase
Type: biochemical
cond: ratio

Known Selectivity: IC50(human β-hexosaminidase)/IC50(Human OGA) results, listed for orientation:
| test_smiles | assay_system | experimental_result |
| --- | --- | --- |
| CCCCCCN1[C@H](CC(=O)NCCC)[C@H](O)[C@H](O)[C@H]1CO | human β-hexosaminidase [human placenta] (HexA/B) | >6211 |
| CCNC(=O)C[C@@H]1[C@@H](O)[C@H](O)[C@@H](CO)N1C(=O)CCc1ccccc1 | human β-hexosaminidase [human placenta] (HexA/B) | >1.34 |
| CNC(=O)C[C@@H]1[C@H](O)[C@H](O)[C@@H](CO)N1CCOc1ccccc1 | human β-hexosaminidase [human placenta] (HexA/B) | >1315 |

[in] Requested field: Selectivity: IC50(human β-hexosaminidase)/IC50(Human OGA). Item: "CCCCCCN1[C@H](CNC(C)=O)[C@H](O)[C@H](O)[C@H]1CO"
[out] >76.92

[in] Requested field: Selectivity: IC50(human β-hexosaminidase)/IC50(Human OGA). Item: "CNC(=O)C[C@@H]1[C@H](O)[C@H](O)[C@@H](CO)N1CCCc1ccccc1"
[out] >18000
